Test system: SF-268 CNS
Assay: NCI-60 one-dose screen, 48 h (100 = growth as untreated, 0 = no growth, -100 = all killed)
Conditions: 10 µM unless noted
Compounds without any hit were thinned out: in the full panel of roughly 83,000, 20% have a hit.
As shown below, each of these compounds has a reported growth value.
Report only the number, with the unit % understood.

* CN1CCN(Cc2ccc(NC(=O)c3cncc(C#Cc4cnn5ccccc45)c3)cc2C(F)(F)F)CC1 | -32.8
* COc1ccc(OC)c(-c2cn3nc(-c4c[nH]c5ccc(Br)cc45)sc3n2)c1 | 18.3
* Cc1c(N2CN3C[C@H](C)N4CN(c5c(C)n(C)n(-c6ccccc6)c5=O)CN5C[C@@H](C)N(C2)C3C54)c(=O)n(-c2ccccc2)n1C (some centres undefined) | 100

Alright, here's another compound for you.
Quick one: growth of Cn1cc(-c2csc(-c3cn(C(=O)OC(C)(C)C)c4ccccc34)n2)c2ccnc(Cl)c21 ? 71.8
